targetOrTestSystem: delta protein kinase C (δPKC) (rat) (UniProt P09215)
methodDescription: PKC overlay assay: facilitation of δPKC binding to blotted dF1Fo by the peptide; densitometry
resultType: EC50 (µM)
Write the value in µM as a bare number.

Return reported EC50; argument: RVREYEKQLEKIKNMI [δPKC-dF1Fo facilitator peptide …] 300
